Kindly state IC50 (concentration which causes a displacement of 50% of the specific binding of 3H-AMPA) for each of the entries shown.
- System Name: quisqualate type receptors (3H-AMPA, rat cerebral cortical membrane homogenate)
- Assay Procedure: 3H-AMPA binding (displacement from quisqualate type receptors)
- Test Parameters: 5 nM 3H-AMPA, 0° C., 30 min, pH 7.1
- Description: The pharmacological properties of the compounds of the present invention can be illustrated by determining their capability for displacing radioactively labelled 2-amino-3-hydroxy-5-methyl-4-isoxazolepropionic acid (AMPA) from the quisqualate type receptors. The displacement activity of the compounds may be shown by determining the IC50 value which represents the concentration (μg/ml) which causes a displacement of 50% of the specific binding of ^3 H-AMPA. […]
Answers are plain numbers, in µg/mL.

Here are 3 compounds together with their reported answers.
| Input Smiles | Reported |
| --- | --- |
| O=c1[nH]c2c3c(ccc2n(O)c1=O)CCCC3 | 0.49 |
| N#Cc1cc2c([nH]c(=O)c(=O)n2O)c2ccccc12 | 0.39 |
| O=c1[nH]c2c3cccnc3ccc2n(O)c1=O | 0.23 |

Now turn to the next compound.
Quick note, IC50 (concentration which causes a displacement of 50% of the specific binding of 3H-AMPA) for O=c1[nH]c2c3ccccc3ccc2n(O)c1=O landed at 0.61

====

- System Name: quisqualate receptors (quisqualic acid stimulated 3H-GABA efflux, cultured cortical neurones)
- Assay Procedure: Antagonism of quisqualic acid stimulated 3H-GABA efflux from cultured cortical neurones
- Type: cell-based, mouse
- Test Parameters: Table 1; test not stated
- Description: The pharmacological properties of the compounds of the present invention can be illustrated by determining their capability for displacing radioactively labelled 2-amino-3-hydroxy-5-methyl-4-isoxazolepropionic acid (AMPA) from the quisqualate type receptors. The antagonism is measured by determining the EC50 value which represents the concentration which reduces the rate of quisqualic acid stimulated ^3 H-GABA efflux by 50%. […]
Kindly state EC50 for each of the entries shown.
One number for each entry, in µg/mL.

Here are 3 compounds together with their reported answers.
| Compound | EC50 (µg/mL) |
| --- | --- |
| O=c1[nH]c2c3ccccc3ccc2n(O)c1=O [Example 1b] | 0.12 |
| O=c1[nH]c2c3cccnc3ccc2n(O)c1=O [Example 4b] | 0.16 |
| O=c1[nH]c2c3c(ccc2n(O)c1=O)CCCC3 [Example 5b] | 0.14 |

Quick note, EC50 for N#Cc1cc2c([nH]c(=O)c(=O)n2O)c2ccccc12 [Example 2c] landed at 0.1
